Target: GST-Rok (full length) (Bacillus subtilis subsp. subtilis str. …, UniProt O34857 1-191)
Sequence: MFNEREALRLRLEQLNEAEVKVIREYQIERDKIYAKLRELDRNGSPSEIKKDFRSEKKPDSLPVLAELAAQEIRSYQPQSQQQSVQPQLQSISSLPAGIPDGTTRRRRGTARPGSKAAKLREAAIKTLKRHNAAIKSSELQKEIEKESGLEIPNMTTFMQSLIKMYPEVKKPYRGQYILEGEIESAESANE
Method description: protein binding microarray; high values mean tight binding
Conditions used: protein: recombinant; tags: GST (pTH5325, pDEST15-Magic modified); dsDNA, one strand shown
The full ranking holds about 33,000 sequences; the median of “e-score” is about -0.037, and the highest 2% start at about 0.34. The sample holds the highest values, similar sequences and a random draw of the others, so the mix is not that of the screen.
Readout: binding signal (E-score)

>>> number("CACGGTAG")
0.264
>>> number("ATTACGAG")
0.154
>>> number("GATAATAA")
0.369
>>> number("CCTAGTAG")
0.233
>>> number("CAGTAACG")
0.112
>>> number("CCTCTTGA")
-0.196
>>> number("CATAATAG")
0.243
>>> number("TACTTCGA")
0.332
>>> number("GGTAATAA")
0.313
>>> number("CTTAATAC")
0.18
>>> number("CGCCTTCA")
0.0118
>>> number("AATAATAC")
0.332
>>> number("AATAATAA")
0.364
>>> number("AGTTTTAC")
0.301
>>> number("GATAATAC")
0.187
>>> number("ATTAATAA")
0.182

----------
Target: GST-Rok (full length) (Bacillus subtilis subsp. subtilis str. …, UniProt O34857 1-191)
Sequence: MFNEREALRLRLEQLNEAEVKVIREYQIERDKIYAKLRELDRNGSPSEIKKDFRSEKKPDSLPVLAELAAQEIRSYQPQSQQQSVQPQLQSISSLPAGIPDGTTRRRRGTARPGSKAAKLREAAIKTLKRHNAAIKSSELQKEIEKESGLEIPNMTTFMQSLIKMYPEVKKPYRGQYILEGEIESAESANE
Method description: protein binding microarray; Rok is a gene silencer of Bacillus subtilis; high values mean tight binding
Conditions used: protein: recombinant; tags: GST (pTH5325, pDEST15-Magic modified); dsDNA, one strand shown
Whole data set: some 33,000 sequences, median “e-score” near -0.037, cut for the highest 2% near 0.34. The full list was thinned out, with the highest values kept by preference.
The entries below come with measured binding signal values attached.
Readout: binding signal (E-score)

>>> number("ACTATAAT")
0.411
>>> number("TGTTGTAA")
0.142
>>> number("ATTACTGG")
-0.0684
>>> number("GTTGGTTA")
0.26
>>> number("AATATAAA")
0.266
>>> number("ATTACTAG")
0.398
>>> number("GTTACTAA")
0.283
>>> number("GATTTACA")
0.345
>>> number("AGACTGAA")
0.0238
>>> number("ACCGAGCA")
-0.0882
>>> number("CGATAGAA")
0.344
>>> number("GTACCATA")
0.339
>>> number("AATTTACG")
0.292
>>> number("TATATAAA")
0.399
>>> number("AAATTACT")
0.386
>>> number("TGATAGAA")
0.388
>>> number("TGTAGTAA")
0.349
>>> number("CTTTTTTC")
0.0367
>>> number("CTTATAAA")
0.0863
>>> number("CGATAGAC")
0.0161
>>> number("CGAACCCG")
-0.099
>>> number("AGCACTAA")
-0.126
>>> number("AGATAGAA")
0.26
>>> number("ATTATAAA")
0.157
>>> number("CAGTGGAA")
0.0127
>>> number("AGAATGTA")
0.201
>>> number("ACCTAGGG")
-0.142
>>> number("CGATAGAG")
-0.134
>>> number("GTACCAGA")
-0.0447
>>> number("AATTTACT")
0.384
>>> number("CTACCATA")
0.328
>>> number("CGCTGAGC")
-0.0254
>>> number("AGTAGTAA")
0.384
>>> number("ATTACTCG")
0.225
>>> number("GTGGCCAC")
-0.123
>>> number("ATTACTAC")
0.355
>>> number("CTAAAAAC")
0.082
>>> number("CCGAATTA")
0.235
